Biological target: M3 muscarinic receptor (Homo sapiens, UniProt P20309)
Construct: expressed in transfected cells; host or cells: CHO (M3-CHO)
Sequence (P20309 whole entry): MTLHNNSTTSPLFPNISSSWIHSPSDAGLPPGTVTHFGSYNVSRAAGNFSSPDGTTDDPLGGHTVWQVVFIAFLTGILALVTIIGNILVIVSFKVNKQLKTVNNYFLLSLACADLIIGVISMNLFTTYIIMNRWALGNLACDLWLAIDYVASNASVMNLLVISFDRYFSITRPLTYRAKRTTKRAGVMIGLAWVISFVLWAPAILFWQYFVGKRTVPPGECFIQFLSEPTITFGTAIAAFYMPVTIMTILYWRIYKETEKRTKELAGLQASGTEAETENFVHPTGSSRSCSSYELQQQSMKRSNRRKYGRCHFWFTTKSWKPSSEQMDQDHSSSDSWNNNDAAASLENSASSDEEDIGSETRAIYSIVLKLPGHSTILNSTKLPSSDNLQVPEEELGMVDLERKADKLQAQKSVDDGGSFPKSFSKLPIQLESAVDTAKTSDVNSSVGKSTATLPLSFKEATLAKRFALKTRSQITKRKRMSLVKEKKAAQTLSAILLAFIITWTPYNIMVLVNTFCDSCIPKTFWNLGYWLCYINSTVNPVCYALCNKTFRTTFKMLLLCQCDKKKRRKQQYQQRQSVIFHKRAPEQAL
Test: cell-based
pEC50: −log10 of the molar value.
Would you mind telling me the reported pEC50 of each entry?

// solved cases for pEC50 follow
- compound: "CCOC(=O)N1C2CCC1CC(N1CCC(N(C(C)=O)C3CCCC3)CC1)C2 (stereo not shown) [Compound 15]"
  reportedResult: "5.30 to 5.70"
- compound: "CCOC(=O)N1C2CCC1CC(N1CCC(N(c3ccc(F)cc3)S(C)(=O)=O)CC1)C2 (stereo not shown) [Compound 71]"
  reportedResult: "< 5.30"
- compound: "CCOC(=O)N1C2CCC1CC(N1CCC(N(CC(=O)CC)c3ccc(F)cc3)CC1)C2 (stereo not shown) [Compound 20]"
  reportedResult: "< 5.30"

I need pEC50 for every entry listed below, if you could help.
1. CCOC(=O)N1C2CCC1CC(N1CCC(N(C)c3ccccc3)CC1)C2 (stereo not shown) [Compound 27]
2. CCCN(C1CCN(C2CC3CCC(C2)N3C(=O)OCC)CC1)S(=O)(=O)c1ccc(C(F)(F)F)cc1 (stereo not shown) [Compound 19]
3. CCOC(=O)N1C2CCC1CC(N1CCC(N(C)c3ccc(F)cc3)CC1)C2 (stereo not shown) [Compound 9]
4. CCOC(=O)N1C2CCC1CC(N1CCC(N(C(C)=O)C(C)C)CC1)C2 (stereo not shown) [Compound 60]
5. CCOC(=O)N1C2CCC1CC(N1CCC(Nc3ccc(F)cc3)CC1)C2 (stereo not shown) [Compound 64]

Result:
1. < 5.30
2. < 5.30
3. < 5.30
4. < 5.30
5. < 5.30

I need pEC50 for every entry listed below, if you could help.
1. CCOC(=O)N1C2CCC1CC(N1CCC(N(CC)c3ccccc3)CC1)C2 (stereo not shown) [Compound 37]
2. CCOC(=O)N1C2CCC1CC(N1CCC3(CCC(=O)N3c3ccccc3)CC1)C2 (stereo not shown) [Compound 88]
3. CCOC(=O)N1C2CCC1CC(N1CCC(N(CC(C)C)S(=O)(=O)c3ccc(C(F)(F)F)cc3)CC1)C2 (stereo not shown) [Compound 28]

Result:
1: < 5.30; 2: < 5.30; 3: < 5.30

I need pEC50 for every entry listed below, if you could help.
1. CCOC(=O)N1C2CCC1CC(N1CCC(N(Cc3ccccc3)C(C)=O)CC1)C2 (stereo not shown) [Compound 35]
2. CCOC(=O)N1C2CCC1CC(N1CCC(N(C(C)=O)C3CCCCC3)CC1)C2 (stereo not shown) [Compound 63]

Result:
1. < 5.30
2. 5.30 to 5.70

Source of measurements: patent US7786308B2
